The reported measurements were obtained from PubChem BioAssay (EPA / NIEHS).

# Assay name: ATG_Oct_MLP_CIS: Attagene CIS-FACTORIAL HepG2 Assay for human Octamer-Binding Transcription Factor (Oct) (AID 2282993)
# Cond: HepG2 Attagene cis-factorial Oct reporter, mRNA; actives raise or lower the signal
The source made the active and inactive calls. Rule for the calls: active = hit-call score of the fitted dose curve at least 0.9, where 1 is the maximum; inactive = score below 0.9.
Readout type: outcome

C=CC(=O)OCCC(F)(F)C(F)(F)C(F)(F)C(F)(F)C(F)(F)C(F)(F)C(F)(F)C(F)(F)F ... inactive
NNC(=O)CCCCC(=O)NN ... inactive
O=C(Nc1cccc([N+](=O)[O-])c1)c1cc2ccccc2cc1O ... inactive

* * *

# Assay target: human Vitamin D Receptor (VDR), VDR (gene 7421)
# Assay name: ATG_VDR_TRANS: Attagene TRANS-FACTORIAL HepG2 Assay for human Vitamin D Receptor (VDR) (AID 2283022)
Inconclusive results are not listed. The source made the active and inactive calls. Rule for the calls: active = hit-call score of the fitted dose curve at least 0.9, where 1 is the maximum; inconclusive = response in the unintended direction; inactive = score below 0.9.
Entry note: the call must match one of active, inactive

# lookup: test call for `O=C(CC(=O)C(F)(F)C(F)(F)C(F)(F)F)c1cccs1`
inactive

# lookup: test call for `CC=O`
inactive

# lookup: test call for c1ccc(CNc2ncnc3c2ncn3C2CCCCO2)cc1 (stereo not given)
inactive

# lookup: test call for `O=CC(F)(F)C(F)(F)C(F)(F)C(F)F`
inactive

# lookup: test call for CCCCCCCCCC=CCC1CC(=O)OC1=O (stereo not given)
inactive

# lookup: test call for `CCOC=C(C(=O)OCC)C(=O)OCC`
inactive

# lookup: test call for `Brc1cc(Br)c(Oc2c(Br)cc(Br)c(Br)c2Br)cc1Br`
inactive

# lookup: test call for CCC1CO1 (stereo not given)
inactive

# lookup: test call for `C=CC(=O)OCCC(F)(F)C(F)(F)C(F)(F)C(F)(F)C(F)(F)C(F)(F)F`
inactive

# lookup: test call for CC1COCc2cc3c(cc21)C(C)(C)C(C)C3(C)C (stereo not given)
active

# lookup: test call for CC1CCC(C(=O)O)CC1 (stereo not given)
inactive

# lookup: test call for `C=CC(=O)OCC(CO)(COCC(COC(=O)C=C)(COC(=O)C=C)COC(=O)C=C)COC(=O)C=C`
inactive

# lookup: test call for `CCCC=O`
inactive

# lookup: test call for `CC[N+](CC)(CC)Cc1ccccc1`
inactive

# lookup: test call for `CC(=O)Nc1ccc(S(N)(=O)=O)cc1`
inactive

# lookup: test call for `O=C(O)C(F)(F)OC(F)(F)C(F)(F)OC(F)(F)C(F)(F)OC(F)(F)C(F)(F)C(F)(F)C(F)(F)F`
inactive

# lookup: test call for `NNC(=O)CCCCC(=O)NN`
inactive

# lookup: test call for `O=C(C=C(O)C(F)(F)F)C(F)(F)F`
inactive

# lookup: test call for `Cc1ccc(S(=O)(=O)O)cc1`
inactive

# lookup: test call for `CCCCc1oc2ccccc2c1C(=O)c1cc(I)c(OCCN(CC)CC)c(I)c1`
active
